Source listed as patent US20190153108A1.

# assay.target: human Epidermal Growth Factor Receptor (huEGFR) over-expressed in mcl-1-/- mouse embryonic fibroblasts (human, UniProt P00533 25-1210)
# experiment.notes: cell-based or functional assay
Doc: threshold 20 nM (exclusive). Items with huEGFR^+ mcl-1^-/- MEF EC50 beneath it return Y; others return N.

Examples with answers:
>>> qualitative_label("AbG-WD (antibody, V domains shown, synthon WD on reduced interchain Cys) VH: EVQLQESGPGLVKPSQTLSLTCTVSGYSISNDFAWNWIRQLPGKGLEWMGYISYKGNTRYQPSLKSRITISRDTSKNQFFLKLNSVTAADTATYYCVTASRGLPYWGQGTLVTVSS VL: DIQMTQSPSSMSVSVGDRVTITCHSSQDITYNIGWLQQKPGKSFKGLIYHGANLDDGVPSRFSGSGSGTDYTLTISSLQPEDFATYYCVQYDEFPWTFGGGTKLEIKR")
"Y"
>>> qualitative_label("AbA-WD (antibody, V domains shown, synthon WD on reduced interchain Cys) VH: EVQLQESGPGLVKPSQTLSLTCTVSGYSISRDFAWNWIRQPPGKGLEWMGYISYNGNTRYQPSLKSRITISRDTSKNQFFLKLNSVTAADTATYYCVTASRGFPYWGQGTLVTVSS VL: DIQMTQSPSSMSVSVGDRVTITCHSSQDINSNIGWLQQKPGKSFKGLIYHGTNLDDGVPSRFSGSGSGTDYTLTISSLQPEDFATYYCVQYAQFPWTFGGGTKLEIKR")
"N"
>>> qualitative_label("AbK-YY (antibody, V domains shown, synthon YY on reduced interchain Cys) VH: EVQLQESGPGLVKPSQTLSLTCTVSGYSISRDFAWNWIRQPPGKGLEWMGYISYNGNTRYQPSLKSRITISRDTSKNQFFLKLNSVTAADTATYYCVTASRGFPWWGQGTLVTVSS VL: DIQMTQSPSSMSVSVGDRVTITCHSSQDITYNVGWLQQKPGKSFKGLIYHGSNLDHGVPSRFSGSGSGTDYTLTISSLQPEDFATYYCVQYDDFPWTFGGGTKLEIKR")
"N"
>>> qualitative_label("AbG-TV (antibody, V domains shown, synthon TV on reduced interchain Cys) VH: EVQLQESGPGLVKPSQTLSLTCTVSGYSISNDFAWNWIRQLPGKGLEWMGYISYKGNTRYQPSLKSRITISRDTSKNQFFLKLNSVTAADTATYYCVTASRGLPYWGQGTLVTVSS VL: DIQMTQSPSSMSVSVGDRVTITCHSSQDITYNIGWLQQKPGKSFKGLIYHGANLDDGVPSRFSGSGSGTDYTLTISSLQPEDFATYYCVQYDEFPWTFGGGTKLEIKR")
"Y"
>>> qualitative_label("AbA-CZ (antibody, V domains shown, synthon CZ on reduced interchain Cys) VH: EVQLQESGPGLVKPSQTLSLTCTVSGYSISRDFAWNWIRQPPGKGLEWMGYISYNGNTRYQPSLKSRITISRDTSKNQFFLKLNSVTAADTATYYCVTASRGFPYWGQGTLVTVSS VL: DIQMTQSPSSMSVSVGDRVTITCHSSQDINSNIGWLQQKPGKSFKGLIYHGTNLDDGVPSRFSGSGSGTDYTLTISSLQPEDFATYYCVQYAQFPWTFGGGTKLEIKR")
"Y"
>>> qualitative_label("AbA-ZZ (antibody, V domains shown, synthon ZZ on reduced interchain Cys) VH: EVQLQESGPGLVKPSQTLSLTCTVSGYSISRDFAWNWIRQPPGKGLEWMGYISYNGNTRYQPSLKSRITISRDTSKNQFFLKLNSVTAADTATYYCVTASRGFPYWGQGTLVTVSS VL: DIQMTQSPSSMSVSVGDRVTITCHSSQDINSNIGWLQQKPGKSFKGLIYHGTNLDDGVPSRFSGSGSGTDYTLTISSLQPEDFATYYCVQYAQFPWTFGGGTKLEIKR")
"N"
>>> qualitative_label("AbB-ZT (antibody, V domains shown, synthon ZT on reduced interchain Cys) VH: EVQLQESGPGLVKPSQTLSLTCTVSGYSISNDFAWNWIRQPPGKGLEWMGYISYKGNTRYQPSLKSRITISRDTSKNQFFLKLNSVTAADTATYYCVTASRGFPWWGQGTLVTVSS VL: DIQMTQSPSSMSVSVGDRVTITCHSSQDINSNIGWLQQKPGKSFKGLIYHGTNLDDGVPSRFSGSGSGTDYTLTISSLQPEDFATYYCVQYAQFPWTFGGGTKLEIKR")
"Y"
>>> qualitative_label("AbK-ZZ (antibody, V domains shown, synthon ZZ on reduced interchain Cys) VH: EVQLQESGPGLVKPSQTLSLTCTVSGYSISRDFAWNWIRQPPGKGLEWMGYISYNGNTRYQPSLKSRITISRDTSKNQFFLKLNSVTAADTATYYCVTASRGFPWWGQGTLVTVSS VL: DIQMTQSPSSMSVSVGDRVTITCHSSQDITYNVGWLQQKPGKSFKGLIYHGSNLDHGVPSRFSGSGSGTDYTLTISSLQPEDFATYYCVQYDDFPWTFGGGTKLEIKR")
"N"

Could you please tell me whether huEGFR^+ mcl-1^-/- MEF EC50 recorded for AbK-LB (antibody, V domains shown, synthon LB on reduced interchain Cys) VH: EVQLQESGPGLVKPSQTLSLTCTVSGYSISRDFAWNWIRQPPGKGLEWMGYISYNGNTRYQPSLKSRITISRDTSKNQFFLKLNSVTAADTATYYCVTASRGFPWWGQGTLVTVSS VL: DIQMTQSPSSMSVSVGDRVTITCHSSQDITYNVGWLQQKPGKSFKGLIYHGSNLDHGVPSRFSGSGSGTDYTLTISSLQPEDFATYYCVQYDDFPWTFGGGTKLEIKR is less than 20 nM?
Y

Try the binder AbK-TX (antibody, V domains shown, synthon TX on reduced interchain Cys) VH: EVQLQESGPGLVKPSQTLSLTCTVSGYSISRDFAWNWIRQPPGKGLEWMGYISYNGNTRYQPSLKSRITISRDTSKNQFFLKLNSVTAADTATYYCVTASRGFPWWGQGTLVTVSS VL: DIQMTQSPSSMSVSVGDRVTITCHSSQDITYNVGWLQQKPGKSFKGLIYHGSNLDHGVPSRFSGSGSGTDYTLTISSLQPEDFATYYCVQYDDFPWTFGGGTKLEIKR
Y
